test system: acetylcholine; assay: Anti-acetylcholine Writhing Test; assay type: in vivo, mice; details: Mus musculus, sc, 20 min, subcutaneous; form tested not given; read-out: Subcutaneous ED50 (95% Confidence Limits)
Counter-ions that a name gives are not always drawn.
recorded_metric: log10(ED50) (log10 of the value in mg/kg)

| compound | study_system | recorded_metric | quantitative_readout |
| --- | --- | --- | --- |
| COc1cccc(C(=O)Oc2ccc3c(c2)[C@]2(C)CCN(CC4CC4)[C@H](C3=O)[C@@H]2C)c1 (relative stereo) [Example 11, hydrochloride] | acetylcholine | log10(ED50) | -1.00 |
| CCCN1CC[C@@]2(CC)c3cc(O)ccc3C(=O)[C@@H]1[C@@H]2C (relative stereo) | acetylcholine | log10(ED50) | 0.00 |
| COc1ccc(C(=O)Oc2ccc3c(c2)[C@]2(C)CCN(CC4CC4)[C@H](C3=O)[C@@H]2C)cc1 (relative stereo) | acetylcholine | log10(ED50) | -1.00 |
| CC[C@H]1[C@H]2C(=O)c3ccc(O)cc3[C@]1(C)CCN2CC1CC1 (relative stereo) [Example 33E] | acetylcholine | log10(ED50) | -0.33 |
| C[C@H]1[C@H]2[C@H](O)c3ccc(O)cc3[C@]1(C)CCN2CC1CC1 (relative stereo) [Example 18, hydrochloride] | acetylcholine | log10(ED50) | 1.00 |
| CCCN1CC[C@@]2(C)c3cc(O)ccc3C(=O)[C@@H]1[C@@H]2C (relative stereo) | acetylcholine | log10(ED50) | 0.51 |
| CC[C@]12CCN(CC3CC3)[C@H](C(=O)c3ccc(O)cc31)[C@H]2C (relative stereo) [Example 30C, hydrochloride] | acetylcholine | log10(ED50) | 0.32 |
